Reference source: patent US20090137396A1

Task for the reader: assign each of the following compounds its reported melting point.

As a guide, the following entries are already answered.
IN: Given the entry CN1C(=O)C(Cc2ccccc2)N(C)C(=O)C1=Cc1c(C#N)ccc(F)c1F (centres unmarked) [Example 115] , report its measured melting point.
OUT: 175 °C

IN: # get_value(readout='melting point', item= CN1C(=O)C(Cc2ccccc2)N(C)C(=O)C1=Cc1c[nH]c2cccc([N+](=O)[O-])c12 (centres unmarked) [184] )
OUT: 159 °C

I have 3 compounds here; please give me melting point for each one.
1. CN1C(=O)C(Cc2ccccc2)N(C)C(=O)C1=Cc1cccnc1C#N (centres unmarked) [Example 205]
2. CN1C(=O)C(Cc2ccccc2)N(C)C(=O)C1=Cc1ccncc1[N+](=O)[O-] (centres unmarked) [Example 196]
3. CN1C(=O)C(Cc2ccccc2)N(C)C(=O)C1=Cc1c[nH]c2cccc(Br)c12 (centres unmarked) [Example 199]

OUT:
["218 °C", "180 °C", "236 °C"]

// for each compound in input: emit melting point
1. CN1C(=O)C(Cc2ccccc2)N(C)C(=O)C1=Cc1ccncc1[N+](=O)[O-] (centres unmarked) [Example 197]
2. CN1C(=O)C(Cc2ccccc2)N(C)C(=O)C1=Cc1c[nH]c2cccc([N+](=O)[O-])c12 (centres unmarked) [185]
3. CN1C(=O)C(Cc2ccccc2)N(C)C(=O)C1=Cc1ncccc1[N+](=O)[O-] (centres unmarked) [Example 198]

OUT:
["175 °C", "238 °C", "165 °C"]

---

System: test plants
Test: greenhouse experiment, pre-emergence treatment, species not stated
Assay type: in vivo
Conditions: pre-emergence method; scale from 0 to 100
quantity_kind: herbicidal activity

IN: # get_value(readout='herbicidal activity', item= CN1C(=O)C(Cc2ccccc2)N(C)C(=O)C1=Cc1ccccc1-c1ncccn1 (single isomer, unassigned) [Example 100] )
OUT: good to very good

IN: Sample CN1C(=O)C(Cc2ccccc2)N(C)C(=O)C1=Cc1ncccc1[N+](=O)[O-] (centres unmarked) — what was its herbicidal activity?
OUT: good to very good

IN: Look up herbicidal activity for this compound: CN1C(=O)C(Cc2ccccc2)N(C)C(=O)C1=Cc1ccccc1-c1ncccn1 (single isomer, unassigned) [Example 101]
OUT: good to very good

IN: Given CN1C(=O)C(Cc2ccccc2)N(C)C(=O)C1=Cc1ccccc1-c1cnccn1 (single isomer, unassigned) [Example 110] , state its recorded herbicidal activity.
OUT: good to very good

Others:
IN: What herbicidal activity value was documented for this compound, COC(=O)c1ccccc1C=C1C(=O)N(C)C(Cc2ccccc2)C(=O)N1C (centres unmarked) ?
OUT: good to very good

---

System: test plants
Test: greenhouse experiment, pre-emergence treatment, species not stated
Type: in vivo
Conditions: pre-emergence method; scale from 0 to 100
Method: The seeds of the test plants were sown separately for each species. For the pre-emergence treatment, the active ingredients, which had been suspended or emulsified in water, were applied directly after sowing by means of finely distributing nozzles. […] During this time, the plants were tended, and their response to the individual treatments was evaluated. […]
quantity_kind: herbicidal activity

IN: GET /values?readout=herbicidal activity&item= Cc1cc(-c2ccccc2C=C2C(=O)N(C)C(Cc3ccccc3)C(=O)N2C)on1 (single isomer, unassigned) [Example 148]
OUT: good to very good

IN: What value of herbicidal activity has been recorded for this entry: CN1C(=O)C(Cc2ccccc2)N(C)C(=O)C1=Cc1ccccc1C(F)(F)F (stereo not shown) [Example 54]
OUT: good to very good

IN: What value of herbicidal activity has been recorded for this entry: CN1C(=O)C(Cc2ccccc2)N(C)C(=O)C1=Cc1ccccc1-c1cnccn1 (single isomer, unassigned) [Example 109]
OUT: good to very good

IN: Reported herbicidal activity, molecule CN1C(=O)C(Cc2ccccc2)N(C)C(=O)C1=Cc1c(Br)ccc(F)c1F (stereo not shown) [Example 119] : ____
OUT: good to very good

IN: What value of measured herbicidal activity is listed for CC(=O)N1C(=O)C(=Cc2ccccc2C#N)N(C)C(=O)C1Cc1ccccc1 (stereo not shown) [Example 140] ?
OUT: good to very good

Batch lookup, herbicidal activity per entry.
1. CN1C(=O)C(Cc2ccccc2)N(C)C(=O)C1=Cc1c(Cl)cccc1I (stereo not shown) [Example 40]
2. CN1C(=O)C(Cc2ccccc2)N(C)C(=O)C1=Cc1ccccc1-c1ncco1 (single isomer, unassigned) [Example 45]
3. CN1C(=O)C(Cc2ccccc2)N(C)C(=O)C1=Cc1ccccc1-c1cncnc1 (stereo not shown) [Example 124]
4. CN1C(=O)C(Cc2ccccc2)N(C)C(=O)C1=Cc1cnccc1I (stereo not shown) [Example 206]
5. CN1C(=O)C(Cc2ccccc2)N(C)C(=O)C1=Cc1ccsc1[N+](=O)[O-] (stereo not shown) [Example 191]
6. CN1C(=O)C(Cc2cccs2)N(C)C(=O)C1=Cc1ccccc1I (stereo not shown) [Example 214]
7. CN1C(=O)C(Cc2ccccc2)N(C)C(=O)C1=Cc1cc(F)ccc1Br (stereo not shown) [Example 62]
8. CN1C(=O)C(Cc2ccccc2)N(C)C(=O)C1=Cc1cccnc1Br (stereo not shown) [Example 204]

OUT:
1: good to very good; 2: good to very good; 3: good to very good; 4: good to very good; 5: good to very good; 6: good to very good; 7: good to very good; 8: good to very good

Batch: herbicidal activity for all items listed.
1. CN1C(=O)C(Cc2ccccc2)N(C)C(=O)C1=Cc1c(F)cccc1I (stereo not shown) [Example 38]
2. Cc1cc(-c2ccccc2C=C2C(=O)N(C)C(Cc3ccccc3)C(=O)N2C)on1 (single isomer, unassigned) [Example 147]
3. CN1C(=O)C(Cc2ccccc2)N(C(=O)c2ccccc2)C(=O)C1=Cc1ccccc1C#N (stereo not shown) [Example 137]

OUT:
["good to very good", "good to very good", "good to very good"]
